tested system: T1, polypeptide GC3pep (human)
T1 construct: also called membrane proximal polypeptide GC3pep
T1 peptide: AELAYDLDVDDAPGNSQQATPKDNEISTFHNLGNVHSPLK
assay text: ELISA, GC3pep coated, antibody 0.001 nM
property: OD450 nm (OD450 nm)
Answers are plain numbers, in OD450 nm.

Hey, can you go through the list below and give me OD450 nm for every item?
1. F1.57.21 (antibody, human IgG1, kappa, V domains shown, human-murine chimeric antibody) VH: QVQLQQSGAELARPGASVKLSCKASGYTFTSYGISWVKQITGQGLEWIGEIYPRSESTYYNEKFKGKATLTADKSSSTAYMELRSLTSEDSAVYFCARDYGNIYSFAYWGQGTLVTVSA VL: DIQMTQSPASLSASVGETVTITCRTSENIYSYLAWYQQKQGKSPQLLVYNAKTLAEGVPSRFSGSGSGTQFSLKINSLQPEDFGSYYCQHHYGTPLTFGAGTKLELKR
2. F2.152.3 (antibody, human IgG1, kappa, V domains shown, human-murine chimeric antibody) VH: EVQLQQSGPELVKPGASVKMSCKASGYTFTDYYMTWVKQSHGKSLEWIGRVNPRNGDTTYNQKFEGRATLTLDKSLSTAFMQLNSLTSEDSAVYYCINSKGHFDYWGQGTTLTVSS VL: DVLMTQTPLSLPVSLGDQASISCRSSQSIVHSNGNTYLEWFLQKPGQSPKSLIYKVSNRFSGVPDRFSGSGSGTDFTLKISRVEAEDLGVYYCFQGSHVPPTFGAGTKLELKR

Result block:
1. 0.05
2. 0.09
